system: T1, human calcitonin receptor (human, UniProt P30988 25-474)
T1 sequence (looked up): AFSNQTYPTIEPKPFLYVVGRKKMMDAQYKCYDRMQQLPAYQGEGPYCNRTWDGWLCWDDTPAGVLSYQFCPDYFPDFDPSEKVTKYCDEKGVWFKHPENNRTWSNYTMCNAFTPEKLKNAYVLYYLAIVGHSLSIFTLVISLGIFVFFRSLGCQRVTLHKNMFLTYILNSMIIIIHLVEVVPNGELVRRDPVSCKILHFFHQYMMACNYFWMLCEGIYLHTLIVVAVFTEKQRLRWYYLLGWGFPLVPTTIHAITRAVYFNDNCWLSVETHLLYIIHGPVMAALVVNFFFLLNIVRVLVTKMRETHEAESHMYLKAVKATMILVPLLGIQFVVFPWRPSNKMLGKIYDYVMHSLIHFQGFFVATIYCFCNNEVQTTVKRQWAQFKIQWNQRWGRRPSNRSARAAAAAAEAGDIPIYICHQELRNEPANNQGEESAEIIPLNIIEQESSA
protocol.details: cell-based or functional assay
Numbered stars: 1 amine (or outer) side, 2 acyl side, 3 side chain; on linkers, the order of the positions; unused ones are H or OH. Bridge positions count the residues as written; N and C are the ends. Square brackets hold non-standard residues; d marks the D form. Side chains are listed from the residue outwards. Ends that are not written are not given here. * marks the point of attachment. C18 diacid = O=C(O)CCCCCCCCCCCCCCCCC(=O)*; γGlu = O=C(O)[C@H](CCC(=O)[*:2])N[*:1]; αMeF = C[C@](N)(Cc1ccccc1)C(=O)O; αMeS = C[C@](N)(CO)C(=O)O; Aib = CC(C)(N)C(=O)O
endpoint: EC50 (cAMP production) (nM)

| binder | result.unit | EC50 (cAMP production) |
| --- | --- | --- |
| K([γGlu-γGlu-C18 diacid])CNTATCATQRLANFLVHSSNNFGPILPPTNVGSNTY-NH2 (disulfide 2-7) [Peptide 5 (SEQ ID NO: 5)] | nM | 3.6 |
| K([γGlu-C18 diacid])KCNTATCATQRLANFLVHSSNN[αMeF]GPILPPTNVGSNTY-NH2 (disulfide 3-8) [Peptide 14 (SEQ ID NO: 14)] | nM | 1.35 |
| {C18 diacid}-[γGlu]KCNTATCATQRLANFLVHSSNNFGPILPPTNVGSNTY-NH2 (disulfide 3-8) [Peptide 3 (SEQ ID NO: 3)] | nM | 1.35 |

A. K([γGlu-γGlu-C18 diacid])CNTATCATQRLANFLVHSSNN[αMeF]GPILPPTNVGSNTY-NH2 (disulfide 2-7) [Peptide 13 (SEQ ID NO: 13)]
B. K([γGlu-γGlu-C18 diacid])CNTATCATQRLANFLVHS[αMeS]NNFGPILPPTNVGSNTY-NH2 (disulfide 2-7) [Peptide 22 (SEQ ID NO: 22)]
Which value of EC50 (cAMP production) is smaller, the one for A or the one for B ? I would appreciate it if you answered with the label of your choice.
A
(A: 2.04 nM, B: 6.54 nM)

a. K([γGlu-C18 diacid])CNTATCATQRLANFLVHSSNNFGPI[dL]PPTNVGSNTY-NH2 (disulfide 2-7) [Peptide 103 (SEQ ID NO: 103)]
b. {C18 diacid-γGlu}-CNTATCATQRLAEFLRHSSNN[αMeF]GPILPPTNVGSNTY-NH2 (disulfide 1-6; numbers in words are those of the source; also: K1 deleted) [Peptide 10 (SEQ ID NO: 10)]
c. K([γGlu-γGlu-C18 diacid])CNTATCATQRLANFLVHSS[Aib]NFGPILPPT[Aib]VGSNTY-NH2 (disulfide 2-7) [Peptide 89 (SEQ ID NO: 89)]
d. K([γGlu-γGlu-C18 diacid])CNTATCATQRLANFLRHSSNN[αMeF]GPILPPTEVGSNTY-NH2 (disulfide 2-7) [Peptide 18 (SEQ ID NO: 18)]
Ascending by EC50 (cAMP production), please. // rank by listing labels in the order requested
a, b, d, c
(a: 1.88 nM, b: 2.73 nM, d: 4.69 nM, c: 8.24 nM)
